target: recombinant human SOS1 polypeptide (amino acids 560-1049) (Homo sapiens); construct: corresponding to amino acids 560-1049, expressed in E. Coli; made in house; host or cells: E. coli; experiment: HTRF displacement assay: inhibition of labeled tracer binding to SOS1; conditions: Table A, Morrison equation for competitive binding
Sequence (Q07889 560-1049): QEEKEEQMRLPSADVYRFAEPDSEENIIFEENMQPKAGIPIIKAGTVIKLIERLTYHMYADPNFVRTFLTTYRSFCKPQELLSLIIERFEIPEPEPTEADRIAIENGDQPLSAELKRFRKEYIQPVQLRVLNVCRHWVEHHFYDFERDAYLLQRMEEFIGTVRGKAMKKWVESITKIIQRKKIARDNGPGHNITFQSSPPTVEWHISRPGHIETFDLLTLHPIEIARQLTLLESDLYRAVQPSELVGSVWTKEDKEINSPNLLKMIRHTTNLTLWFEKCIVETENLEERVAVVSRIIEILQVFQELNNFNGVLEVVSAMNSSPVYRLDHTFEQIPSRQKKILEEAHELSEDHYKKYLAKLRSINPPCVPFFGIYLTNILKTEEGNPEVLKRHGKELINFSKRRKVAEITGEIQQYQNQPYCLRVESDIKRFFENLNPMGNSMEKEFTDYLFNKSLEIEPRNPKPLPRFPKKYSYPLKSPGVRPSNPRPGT
readout: Ki (nM)
Note: unit nM is implicit; provide only the numeric part.

As a guide, the following entries are already answered.
> print(dat)
                                   compound  number
1  Cc1c(C#N)cccc1[C@@H](C)Nc1nnc(C)c2cnc(N(C)C[C@H]3CCCN3C)cc12    1.89
2  Cc1c([C@@H](C)Nc2nnc(C)c3cnc(N4C[C@H]5C[C@@H]4CO5)cc23)cc(N)nc1C(F)(F)F     7.3

Prompt: So what's the measured Ki for this one? `Cc1c([C@@H](C)Nc2nnc(C)c3cnc(N(C)[C@H]4CCNC4)cc23)cccc1C(F)(F)F`
Response: 0.246

Prompt: Using the record for CCN(c1cc2c(N[C@H](C)c3cccc(C#N)c3C)nnc(C)c2cn1)C1CCN(C)C1 (stereo in doubt) , report its Ki.
Response: 0.901

Prompt: Reported Ki for `Cc1c(C#N)cccc1[C@@H](C)Nc1nnc(C)c2cnc(N3CCC34CN(C)C4)cc12` : what is it?
Response: 0.601

Prompt: // Ki lookup, key: `Cc1nnc(N[C@H](C)c2cccc(C(F)(F)F)c2F)c2cc(N(C)[C@@H]3CCOC3)ncc12`
Response: 1.16

Prompt: Tell me the measured Ki of Cc1c(C#N)cccc1[C@@H](C)Nc1nnc(C)c2cnc(N3C[C@H]4[C@@H]3CCN4C)cc12 (single isomer, unassigned) [Example 6-12] , please.
Response: 0.24

Prompt: # query: Ki of entry `CCN1CC[C@@H](Nc2cc3c(N[C@H](C)c4cccc(C#N)c4C)nnc(C)c3cn2)C1`
Response: 4

Prompt: Which Ki is listed for `CO[C@H]1CCN(c2cc3c(N[C@H](C)c4cccc(C#N)c4C)nnc(C)c3cn2)C1` ?
Response: 2.02

Prompt: If you can, please state the reported Ki value of `Cc1c(C#N)cccc1[C@@H](C)Nc1nnc(C)c2cc(F)c(N3C[C@@H]4C[C@H]3CO4)cc12` .
Response: 16.1

Prompt: // lookup Ki for `Cc1c(C#N)cccc1[C@@H](C)Nc1nnc(C)c2cnc(N(C)[C@@H]3CCOC3)cc12`
Response: 2.34

Prompt: State the recorded Ki for this entry: Cc1c(C#N)cccc1[C@@H](C)Nc1nnc(C)c2cc(F)c(N3C[C@H]4[C@@H]3CCN4C)cc12 (single isomer, unassigned)
Response: 1

Prompt: // lookup Ki for `Cc1c(C#N)cccc1[C@@H](C)Nc1nnc(C)c2cnc(N3CCS(=O)(=O)CC3)cc12`
Response: 3.36

Prompt: Looking for the measured Ki of `CN[C@H]1CCN(c2cc3c(N[C@H](C)c4cccc(C#N)c4C)nnc(C)c3cn2)C1` , can you help?
Response: 1.42

Prompt: What value of Ki has been reported for the following compound? `CCN1CC[C@H](Nc2cc3c(N[C@H](C)c4cccc(C#N)c4C)nnc(C)c3cn2)C1`
Response: 5.6

Prompt: Please give the measured Ki for this compound: `Cc1c(C#N)cccc1[C@@H](C)Nc1nnc(C)c2cnc(N3CCN(C(=O)[C@@H]4CCCCN4C)CC3)cc12`
Response: 0.545

* * *

target: recombinant human SOS1 polypeptide (amino acids 560-1049) (Homo sapiens); construct: corresponding to amino acids 560-1049, expressed in E. Coli; made in house; host or cells: E. coli; experiment: HTRF displacement assay: inhibition of labeled tracer binding to SOS1; details: Table A, Morrison equation for competitive binding
readout: Ki

> print(dat)
                                   compound                               system.name  readout    result
1  CCN(c1cc2c(N[C@H](C)c3cccc(C#N)c3C)nnc(C)c2cn1)[C@@H]1CCN(C)C1 [Example 1-103]  recombinant human SOS1 polypeptide (amino acids 560-1049) (Homo sapiens)       Ki    1.1 nM
2  CCN1CCN(c2cc3c(N[C@H](C)c4cccc(C#N)c4C)nnc(C)c3cc2F)CC1 [Example 4-1]  recombinant human SOS1 polypeptide (amino acids 560-1049) (Homo sapiens)       Ki   1.73 nM
3  Cc1c(C#N)cccc1[C@@H](C)Nc1nnc(C)c2cnc(N(C)[C@@H]3CCCN(C)C3)cc12 [Example 1-82]  recombinant human SOS1 polypeptide (amino acids 560-1049) (Homo sapiens)       Ki   1.16 nM
4  Cc1nnc(N[C@H](C)c2cccc(C(C)(F)F)c2F)c2cc(N3CCN(C)CC3)ncc12 [Example 1-109]  recombinant human SOS1 polypeptide (amino acids 560-1049) (Homo sapiens)       Ki  0.647 nM
5  Cc1c(C#N)cccc1[C@@H](C)Nc1nnc(C)c2cc(F)c(N3C[C@H]4C[C@@H]3CO4)cc12 [Example 4-15]  recombinant human SOS1 polypeptide (amino acids 560-1049) (Homo sapiens)       Ki   4.66 nM

Prompt: Provide value of Ki for this record tested with recombinant human SOS1 polypeptide (amino acids 560-1049) (Homo sapiens): Cc1c(C#N)cccc1[C@@H](C)Nc1nnc(C)c2cnc(N3C[C@H]4CCCN(C)[C@H]4C3)cc12 (single isomer, unassigned) [Example 6-5]
Response: 1.12 nM

Prompt: Give the reported Ki for Cc1nnc(N[C@H](C)c2cccc(C(C)(F)F)c2F)c2cc(N3CCN(C)CC3)c(C#N)cc12 [Example 6-21] (system: recombinant human SOS1 polypeptide (amino acids 560-1049) (Homo sapiens)).
Response: 1.05 nM

* * *

target: recombinant human SOS1 polypeptide (amino acids 560-1049) (Homo sapiens); construct: corresponding to amino acids 560-1049, expressed in E. Coli; made in house; host or cells: E. coli; experiment: HTRF displacement assay: inhibition of labeled tracer binding to SOS1; conditions: Table A, Morrison equation for competitive binding
Known Ki of a selection of compounds
Write the value in nM as a bare number.

Worked cases, Ki given:
> print(dat)
                                   compound  readout  unit.name  number
1  CCN1C[C@H]2C[C@@H]1CN2c1cc2c(N[C@H](C)c3cccc(C#N)c3C)nnc(C)c2cn1 [Example 1-37]       Ki         nM    1.61
2  Cc1nnc(N[C@H](C)c2cccc(C(F)(F)F)c2F)c2cc(N3CCC4(CN(C)C4)C3)ncc12 [Example 1-26]       Ki         nM   0.348
3  Cc1nnc(N[C@H](C)c2cccc(C(F)(F)F)c2F)c2cc(N(C)[C@H]3CCN(C(C)C)C3)ncc12 [Example 1-77]       Ki         nM   0.647

Prompt: Returns the measured Ki for the input compound. Input: Cc1c(C#N)cccc1[C@@H](C)Nc1nnc(C)c2cnc(N3CCN(C(=O)[C@@H]4CCCN4)CC3)cc12 [Example 2-4]
Response: 0.816

Prompt: Which Ki is listed for Cc1c(C#N)cccc1[C@@H](C)Nc1nnc(C)c2cnc(N3CC[C@H](O)C3)cc12 [Example 1-46] ?
Response: 1.95

Prompt: Query (compound): Cc1nnc(N[C@H](C)c2cccc(C(F)F)c2F)c2cc(N3CCN(C)CC3)c(F)cc12 [Example 4-20] ; field requested: Ki
Response: 0.547

Prompt: So what's the measured Ki for this one? Cc1c(C#N)cccc1[C@@H](C)Nc1nnc(C)c2cc(F)c(N3CC4(CN(C)C4)C3)cc12 [Example 4-9]
Response: 0.343

* * *

target: recombinant human SOS1 polypeptide (amino acids 560-1049) (Homo sapiens); construct: corresponding to amino acids 560-1049, expressed in E. Coli; made in house; host or cells: E. coli; assay: HTRF displacement assay: inhibition of labeled tracer binding to SOS1; details: Table A1, Morrison equation for competitive binding
Counter-ions that a name gives are not always drawn.
Entries and their Ki values follow.
Unit nM implied. Number only.

Guide cases for Ki, answers given:
> print(dat)
                                   compound  number
1  Cc1c(C#N)cccc1[C@@H](C)Nc1nnc(C)c2cc(Cl)c(N3CCS(=O)(=O)CC3)cc12    8.97
2  Cc1c(C#N)cccc1[C@@H](C)Nc1nnc(C)c2cnc(N3CCn4c(C)nnc4C3)cc12    1.26
3  COC1(c2cc3c(N[C@H](C)c4cccc(C#N)c4C)nnc(C)c3cc2F)CCOCC1    4.66

Prompt: Endpoint output: Ki of `CNc1cc2c(N[C@H](C)c3cccc(C#N)c3C)nnc(C)c2cc1F` . Value?
Response: 8.75

Prompt: Look at this compound and give its reported Ki. `Cc1ccccc1[C@@H](C)Nc1nnc(C)c2cnc(N3CCOCC3)cc12`
Response: 54.8

Prompt: Give the measured Ki of `Cc1nnc(N[C@H](C)c2cccc(C(F)F)c2F)c2cc(N3CCC34COC4)c(F)cc12` .
Response: 1.18

Prompt: Request the reported Ki associated with `Cc1c(C#N)cccc1[C@@H](C)Nc1nnc(C)c2cc(C(F)F)c(N3CCN(C)CC3)cc12`
Response: 4.95

Prompt: May I ask what Ki has been recorded for `Cc1nnc(N[C@H](C)c2cccc(C(F)F)c2F)c2cc(N3CCN(CCCF)CC3)ncc12` ?
Response: 0.396

Prompt: Fill blank: measured Ki of the compound `Cc1c(C#N)cccc1[C@@H](C)Nc1nnc(C)c2cnc(N3CCc4c(ncn4C)C3)cc12` is ____.
Response: 0.777

Prompt: What value of Ki has been reported for the following compound? Cc1c(C#N)cccc1[C@@H](C)Nc1nnc(C)c2cc(Cl)c(N(C)C[C@H]3CCCN3C)cc12 [Example P-196, formic acid salt]
Response: 5.98
